Data credit: PubChem BioAssay AID1919006

System: 885512-296-R-J2-PDC complex spheroid growth, % test/control;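 note: spheroids exposed to compounds for seven days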
Assay: Anticancer human tumor 885512-296-R-J2-PDC patient-derived breast carcinoma cell line growth inhibition [AhR]; active = viability on the fitted dose curve at most 10% of control; inactive = the rest
Conditions: second compound 0.1 µM; first compound 0.0949 µM
Outcome codes: y = active, n = inactive

>  <COMPOUND>
CC(C)CC(NC(=O)C(Cc1ccccc1)NC(=O)c1cnccn1)B(O)O (configuration not stated) + Cc1cncc(-c2nc(NCCc3c[nH]c4ccccc34)c3ncn(C(C)C)c3n2)c1

>  <ASSAY TARGET>
885512-296-R-J2-PDC complex spheroid growth, % test/control;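 note: spheroids exposed to compounds for seven days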

>  <DISCRETE LABEL>
y

$$$$
>  <COMPOUND>
Nc1ncn(C2CC(O)C(CO)S2)c(=O)n1 (configuration not stated) + Cc1cncc(-c2nc(NCCc3c[nH]c4ccccc34)c3ncn(C(C)C)c3n2)c1

>  <ASSAY TARGET>
885512-296-R-J2-PDC complex spheroid growth, % test/control;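 note: spheroids exposed to compounds for seven days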

>  <DISCRETE LABEL>
n

$$$$
>  <COMPOUND>
CCc1c2c(nc3ccc(O)cc13)-c1cc3c(c(=O)n1C2)COC(=O)[C@]3(O)CC + Cc1cncc(-c2nc(NCCc3c[nH]c4ccccc34)c3ncn(C(C)C)c3n2)c1

>  <ASSAY TARGET>
885512-296-R-J2-PDC complex spheroid growth, % test/control;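 note: spheroids exposed to compounds for seven days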

>  <DISCRETE LABEL>
y

$$$$
>  <COMPOUND>
CCN(c1cc(-c2ccc(CN3CCOCC3)cc2)cc(C(=O)NCc2c(C)cc(C)[nH]c2=O)c1C)C1CCOCC1 + Cc1ccccc1N=Nc1ccc(NC(=O)c2ccnn2C)c(C)c1

>  <ASSAY TARGET>
885512-296-R-J2-PDC complex spheroid growth, % test/control;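 note: spheroids exposed to compounds for seven days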

>  <DISCRETE LABEL>
n

$$$$
>  <COMPOUND>
CCN(c1cc(-c2ccc(CN3CCOCC3)cc2)cc(C(=O)NCc2c(C)cc(C)[nH]c2=O)c1C)C1CCOCC1 + CC(CO)NC(=O)c1cc(-c2ccc(Cl)cc2)nn(-c2cnn(C)c2)c1=O

>  <ASSAY TARGET>
885512-296-R-J2-PDC complex spheroid growth, % test/control;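 note: spheroids exposed to compounds for seven days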

>  <DISCRETE LABEL>
n

$$$$
>  <COMPOUND>
O=C(C=Cn1cnc(-c2cc(C(F)(F)F)cc(C(F)(F)F)c2)n1)NNc1cnccn1 + Cc1ccccc1N=Nc1ccc(NC(=O)c2ccnn2C)c(C)c1

>  <ASSAY TARGET>
885512-296-R-J2-PDC complex spheroid growth, % test/control;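 note: spheroids exposed to compounds for seven days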

>  <DISCRETE LABEL>
n

$$$$
>  <COMPOUND>
O=C(C=Cn1cnc(-c2cc(C(F)(F)F)cc(C(F)(F)F)c2)n1)NNc1cnccn1 + Cc1cncc(-c2nc(NCCc3c[nH]c4ccccc34)c3ncn(C(C)C)c3n2)c1

>  <ASSAY TARGET>
885512-296-R-J2-PDC complex spheroid growth, % test/control;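 note: spheroids exposed to compounds for seven days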

>  <DISCRETE LABEL>
n

$$$$
>  <COMPOUND>
CC(C)CC(NC(=O)C(Cc1ccccc1)NC(=O)c1cnccn1)B(O)O (configuration not stated) + CC(CO)NC(=O)c1cc(-c2ccc(Cl)cc2)nn(-c2cnn(C)c2)c1=O

>  <ASSAY TARGET>
885512-296-R-J2-PDC complex spheroid growth, % test/control;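 note: spheroids exposed to compounds for seven days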

>  <DISCRETE LABEL>
y

$$$$
>  <COMPOUND>
O=C(C=Cn1cnc(-c2cc(C(F)(F)F)cc(C(F)(F)F)c2)n1)NNc1cnccn1 + CC(CO)NC(=O)c1cc(-c2ccc(Cl)cc2)nn(-c2cnn(C)c2)c1=O

>  <ASSAY TARGET>
885512-296-R-J2-PDC complex spheroid growth, % test/control;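 note: spheroids exposed to compounds for seven days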

>  <DISCRETE LABEL>
n

$$$$
>  <COMPOUND>
Nc1ncn(C2CC(O)C(CO)S2)c(=O)n1 (configuration not stated) + CC(CO)NC(=O)c1cc(-c2ccc(Cl)cc2)nn(-c2cnn(C)c2)c1=O

>  <ASSAY TARGET>
885512-296-R-J2-PDC complex spheroid growth, % test/control;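 note: spheroids exposed to compounds for seven days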

>  <DISCRETE LABEL>
n

$$$$
>  <COMPOUND>
Nc1ncn(C2CC(O)C(CO)S2)c(=O)n1 (configuration not stated) + Cc1ccccc1N=Nc1ccc(NC(=O)c2ccnn2C)c(C)c1

>  <ASSAY TARGET>
885512-296-R-J2-PDC complex spheroid growth, % test/control;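 note: spheroids exposed to compounds for seven days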

>  <DISCRETE LABEL>
n

$$$$
>  <COMPOUND>
CCc1c2c(nc3ccc(O)cc13)-c1cc3c(c(=O)n1C2)COC(=O)[C@]3(O)CC + CC(CO)NC(=O)c1cc(-c2ccc(Cl)cc2)nn(-c2cnn(C)c2)c1=O

>  <ASSAY TARGET>
885512-296-R-J2-PDC complex spheroid growth, % test/control;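 note: spheroids exposed to compounds for seven days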

>  <DISCRETE LABEL>
y

$$$$
